Target: human PPARdelta (Homo sapiens, UniProt Q03181)
Construct: human PPARdelta receptor (amino acids S139-Y441); expressed in transfected cells; plasmid pcDNA3
Sequence (Q03181 139-441): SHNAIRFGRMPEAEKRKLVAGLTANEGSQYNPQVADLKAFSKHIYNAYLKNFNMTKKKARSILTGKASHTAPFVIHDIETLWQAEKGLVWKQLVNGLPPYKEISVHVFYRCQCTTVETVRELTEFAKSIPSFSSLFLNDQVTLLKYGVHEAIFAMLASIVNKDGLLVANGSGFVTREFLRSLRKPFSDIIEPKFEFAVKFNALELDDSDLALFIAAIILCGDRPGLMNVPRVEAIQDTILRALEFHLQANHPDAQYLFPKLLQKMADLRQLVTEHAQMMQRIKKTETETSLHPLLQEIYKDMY
Experiment: cellular PPARdelta assay (GAL4 luciferase reporter, stably transfected HEK cell line)
Format: cell-based
Property Name: EC50 (nM)

Below, each entry is followed by its recorded EC50 result.
Molecule	EC50, nM
CC[C@@H](Oc1cc(OC)c(-c2noc(=O)[nH]2)cc1F)c1sc(-c2ccc(C(F)(F)F)cc2)nc1C [(+)-40]	1
CCC(Oc1ccc(-c2noc(=O)[nH]2)c(OC)c1)c1sc(-c2ccc(C(F)(F)F)cc2)nc1CN1CCC(C(F)(F)F)CC1 (racemic)	8
Cc1nc(-c2ccc(C(F)(F)F)cc2)sc1C(OCc1ccc(-c2noc(=O)[nH]2)cc1)C(F)(F)C1CC1 (racemic)	127

A. CCC(Oc1ccc(-c2noc(=O)[nH]2)c(OCC(F)(F)F)c1)c1sc(-c2ccc(C(F)(F)F)cc2)nc1C (racemic)
B. Cc1nc(-c2ccc(C(F)(F)F)cc2)sc1C(OCc1ccc(-c2noc(=O)[nH]2)c(F)c1)C(F)(F)F (racemic)
C. Cc1nc(-c2ccc(C(F)(F)F)cc2)sc1C(Cc1ccccn1)Oc1ccc(-c2noc(=O)[nH]2)c(Cl)c1 (racemic)
D. CCC(Oc1ccc(-c2noc(=O)[nH]2)c(OC(F)F)c1)c1sc(-c2ccc(C(F)(F)F)cc2)nc1C (racemic)
Rank order required: EC50, descending. Output the labels ranked as instructed.
B, C, A, D
(B: 17 nM, C: 6 nM, A: 1 nM, D: 0.5 nM)

The values you see were collected from patent US7834030B2.
